B1: Centrosomal protein of 55 kDa (Homo sapiens), Q53EZ4 (parent)
chain: MSSRSTKDLIKSKWGSKPSNSKSETTLEKLKGEIAHLKTSVDEITSGKGKLTDKERHRLLEKIRVLEAEKEKNAYQLTEKDKEIQRLRDQLKARYSTTTLLEQLEETTREGERREQVLKALSEEKDVLKQQLSAATSRIAELESKTNTLRLSQTVAPNCFNSSINNIHEMEIQLKDALEKNQQWLVYDQQREVYVKGLLAKIFELEKKTETAAHSLPQQTKKPESEGYLQEEKQKCYNDLLASAKKDLEVERQTITQLSFELSEFRRKYEETQKEVHNLNQLLYSQRRADVQHLEDDRHKTEKIQKLREENDIARGKLEEEKKRSEELLSQVQFLYTSLLKQQEEQTRVALLEQQMQACTLDFENEKLDRQHVQHQLHVILKELRKARNQITQLESLKQLHEFAITEPLVTFQGETENREKVAASPKSPTAALNESLVECPKCNIQYPATEHRDLLVHVEYCSK

Variants of: B1
conditionNotes: with tead4_human TEAD4, Q15561
Sequence (Q15561 whole entry): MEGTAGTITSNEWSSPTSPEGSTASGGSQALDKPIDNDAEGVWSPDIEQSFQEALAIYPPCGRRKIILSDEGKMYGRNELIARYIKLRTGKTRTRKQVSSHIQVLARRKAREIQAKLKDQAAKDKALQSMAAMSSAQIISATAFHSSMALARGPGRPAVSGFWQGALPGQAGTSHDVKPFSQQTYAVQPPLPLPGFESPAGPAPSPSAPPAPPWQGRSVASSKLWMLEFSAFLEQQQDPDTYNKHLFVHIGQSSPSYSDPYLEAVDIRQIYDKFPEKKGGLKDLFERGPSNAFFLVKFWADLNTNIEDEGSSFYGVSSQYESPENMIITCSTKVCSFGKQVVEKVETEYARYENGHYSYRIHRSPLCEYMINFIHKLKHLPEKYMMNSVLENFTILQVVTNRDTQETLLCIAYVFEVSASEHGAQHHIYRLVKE

- variantSpec: "R348K"
  effect of a mutation on the interaction: "with no effect"
- variantSpec: "C236R"
  effect of a mutation on the interaction: "with no effect"
- variantSpec: "A244P"
  effect of a mutation on the interaction: "with no effect"
- variantSpec: "H57Q"
  effect of a mutation on the interaction: "with no effect"
